Sourced from patent US8178708B2

Target desc: ligand binding domain of human PPARγ (Homo sapiens)
Sequence (P37231 238-503 limits assumed): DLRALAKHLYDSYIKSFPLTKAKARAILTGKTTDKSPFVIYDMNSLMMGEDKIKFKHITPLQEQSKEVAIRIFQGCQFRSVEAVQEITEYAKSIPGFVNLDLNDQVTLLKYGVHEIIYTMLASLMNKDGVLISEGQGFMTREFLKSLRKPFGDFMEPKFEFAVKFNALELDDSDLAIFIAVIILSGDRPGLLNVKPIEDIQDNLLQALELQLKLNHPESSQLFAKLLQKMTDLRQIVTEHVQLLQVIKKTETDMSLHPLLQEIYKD
Experiment: GAL4-hPPARγ LBD luciferase reporter, transient transfection in COS-1 cells
Condition: 10 μM; GAL4-hPPARγ LBD chimera in COS-1 cells; negative control = 1.00
Value kind: Luciferase activation (fold activation) hPPARγ

Some entries whose results are on file:
compound="CC/C=C\\C/C=C\\C/C=C\\C/C=C\\CC/C=C/C=C(\\C)C(=O)O [Compound 11]" reported_result="1.67 ± 0.11 fold activation"
compound="CC/C=C\\C/C=C\\C/C=C\\C/C=C\\C/C=C\\CCC/C(C)=C/C(=O)O [Compound 4]" reported_result="1.56 ± 0.12 fold activation"
compound="CC/C=C\\C/C=C\\C/C=C\\C/C=C\\CC/C=C/C=C/C(C)=C/C(=O)O [Compound 25]" reported_result="4.32 ± 0.29 fold activation"

Form field Luciferase activation (fold activation) hPPARγ, entry CC/C=C\C/C=C\C/C=C\C/C=C\CC/C=C/C=C/C(=O)O [Compound 13] : 1.63 ± 0.06 fold activation

====

Entries and their measured Luciferase activation (fold activation) hPPARδ follow.
Target desc: ligand binding domain of human PPARδ (Homo sapiens)
Sequence (Q03181 211-439 limits assumed): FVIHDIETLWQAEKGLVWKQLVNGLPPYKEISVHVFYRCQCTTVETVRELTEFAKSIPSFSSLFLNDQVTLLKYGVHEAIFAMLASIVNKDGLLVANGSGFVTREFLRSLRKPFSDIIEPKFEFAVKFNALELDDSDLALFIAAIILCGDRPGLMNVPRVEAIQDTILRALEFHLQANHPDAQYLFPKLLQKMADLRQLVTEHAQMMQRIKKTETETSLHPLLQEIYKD
Experiment: GAL4-hPPARδ LBD luciferase reporter, transient transfection in COS-1 cells
Condition: 10 μM; GAL4-hPPARδ LBD chimera in COS-1 cells; negative control = 1.00
Quick reminder: number only, in fold activation, skip the unit.

The examples below pair each entry with its known result.
compound="CC/C=C\\C/C=C\\C/C=C\\C/C=C\\CC/C=C/C=C/C(=O)O [Compound 13]" reported_result=1.11
compound="CC/C=C\\C/C=C\\C/C=C\\C/C=C\\CC/C=C/C=C/C(C)=C/C(=O)O [Compound 25]" reported_result=1.47
compound="CC/C=C\\C/C=C\\C/C=C\\C/C=C\\C/C=C\\CCC/C(C)=C/C(=O)O [Compound 4]" reported_result=1.28

Luciferase activation (fold activation) hPPARδ on ligand binding domain of human PPARδ (Homo sapiens) for CC/C=C\C/C=C\C/C=C\C/C=C\CC/C=C/C=C(\C)C(=O)O [Compound 11] is 1.17

====

Target desc: ligand binding domain of human PPARα (Homo sapiens, UniProt Q07869)
Sequence (Q07869 239-466 limits assumed): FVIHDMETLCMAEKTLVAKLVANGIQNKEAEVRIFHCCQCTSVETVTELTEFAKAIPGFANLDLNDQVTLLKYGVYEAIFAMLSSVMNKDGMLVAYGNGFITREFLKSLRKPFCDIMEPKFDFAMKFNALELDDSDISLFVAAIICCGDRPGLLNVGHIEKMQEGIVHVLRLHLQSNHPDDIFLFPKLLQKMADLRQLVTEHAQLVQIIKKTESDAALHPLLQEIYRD
Experiment: GAL4-hPPARα LBD luciferase reporter, transient transfection in COS-1 cells
Condition: 10 μM; GAL4-hPPARα LBD chimera in COS-1 cells; negative control = 1.00
Assign Y whenever Luciferase activation (fold activation) hPPARα does not fall below 5 fold activation; assign N whenever it does.

Request: For this molecule, is measured Luciferase activation (fold activation) hPPARα 5 fold activation or higher? "CC/C=C\C/C=C\C/C=C\C/C=C\C/C=C\CCC/C(C)=C/C(=O)O"
Response: N

Request: hey, is Luciferase activation (fold activation) hPPARα for this one >= 5 fold activation? "CC/C=C\C/C=C\C/C=C\C/C=C\CC/C=C/C=C(\C)C(=O)O"
Response: Y

Request: Threshold query (Luciferase activation (fold activation) hPPARα >= 5 fold activation) on Cc1cccc(Nc2cc(Cl)nc(SCC(=O)O)n2)c1C [Wy14643, reference compound]
Response: N

Request: Record "CC/C=C\C/C=C\C/C=C\C/C=C\CC/C=C/C=C/C(C)=C/C(=O)O" ; criterion: Luciferase activation (fold activation) hPPARα no lower than 5 fold activation. Met?
Response: Y

====

Target desc: ligand binding domain of human RXRα (Homo sapiens)
Sequence (P19793 227-458 limits assumed): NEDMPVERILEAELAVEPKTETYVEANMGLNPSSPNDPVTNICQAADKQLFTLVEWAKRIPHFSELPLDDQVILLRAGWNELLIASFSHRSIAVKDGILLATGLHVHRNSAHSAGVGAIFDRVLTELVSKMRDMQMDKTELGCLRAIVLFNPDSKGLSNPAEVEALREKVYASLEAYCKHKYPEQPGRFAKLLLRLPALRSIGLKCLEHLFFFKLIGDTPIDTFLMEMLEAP
Experiment: GAL4-hRXRα LBD luciferase reporter, transient transfection in COS-1 cells
Condition: 10 μM; GAL4-hRXRα LBD chimera in COS-1 cells; negative control = 1.00
Value kind: Luciferase activation (fold activation) hRXRα
Enter your answer as a number in fold activation; do not include the unit.

compound_smiles=CC/C=C\C/C=C\C/C=C\C/C=C\C/C=C\CCC/C(C)=C/C(=O)O readout_unit="fold activation" reported_result=0.90
compound_smiles=CC/C=C\C/C=C\C/C=C\C/C=C\CC/C=C/C=C/C(C)=C/C(=O)O readout_unit="fold activation" reported_result=1.57
compound_smiles=CC/C=C\C/C=C\C/C=C\C/C=C\CC/C=C/C=C/C(=O)O readout_unit="fold activation" reported_result=0.81

Case "CC/C=C\C/C=C\C/C=C\C/C=C\CC/C=C/C=C(\C)C(=O)O" , ligand binding domain of human RXRα (Homo sapiens), Luciferase activation (fold activation) hRXRα recorded as 0.84
